B1: tRNA (parent)
chain: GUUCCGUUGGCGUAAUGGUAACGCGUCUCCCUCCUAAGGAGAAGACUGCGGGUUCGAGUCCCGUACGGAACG

Variants of: B1
Experiment: yeast fitness relative to wild type (ratio to wild type); higher = fitter; tRNA-Arg(CCU), competitive growth, 37 C, YPD
Fewer inactive variants are shown than the library holds.
yeast fitness values, listed per item
Reply with the value as a number alone.

Worked examples, 2 variants total:
>>> measured("U7A A42G")
0.655
>>> measured("U7G G12A U13A")
0.565

Problem: Suppose we examine the variant G52C G68A ; what yeast fitness value has been reported?
Solution: 0.583

Problem: Which yeast fitness is listed for U19G A70C ?
Solution: 0.999

Problem: If you can, please state the reported yeast fitness value of A20G G25A C49U .
Solution: 0.781

Problem: // yeast fitness lookup, key: U16A C22G
Solution: 0.989

Problem: Report yeast fitness for G38A C55U please.
Solution: 0.849

Problem: Please report the recorded yeast fitness for A20U C62U A69C .
Solution: 0.686

Problem: Find the recorded yeast fitness belonging to G9C G23A A43U A57U and report it.
Solution: 0.561

Problem: Reported yeast fitness for U13G A37C : what is it?
Solution: 0.65

Problem: State the recorded yeast fitness for this entry: U13C U26C C31U
Solution: 0.784

Problem: Record request: yeast fitness value, item C5A U35C G44A G48C C55G C66U A70U
Solution: 0.558
